Origin of measurements: patent US20170168078A1

Target: T1, human FRα expressed on CHO cells (GPI-linked) (human, UniProt P15328 25-234)
T1 construct: CHO/CHOK1 cells stably expressing GPI-linked human FRα; They were used intact in flow cytometry and as nonreduced whole cell lysates in the western blots; also called native FRα; CHO-FRα
T1 sequence (P15328 25-234 limits assumed): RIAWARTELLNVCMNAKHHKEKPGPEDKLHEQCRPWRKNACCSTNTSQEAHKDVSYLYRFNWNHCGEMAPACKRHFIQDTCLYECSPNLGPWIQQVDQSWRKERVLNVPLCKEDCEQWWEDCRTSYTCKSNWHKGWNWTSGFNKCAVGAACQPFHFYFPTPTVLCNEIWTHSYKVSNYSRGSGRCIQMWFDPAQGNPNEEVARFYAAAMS
Experiment: flow cytometry on CHO cells expressing FRα, antibody 1 µg/mL, FITC secondary
Reported Geometric Mean values follow for various binders
Respond with the number and no other words.

Reference set, count: 3
[
  {
    "binder": "Monoclonal antibody 26B3.F2 (antibody, mouse IgG1, V domains shown, also called MAb 26B3; ATCC PTA-11885) VH: GPELVKPGASVKISCKASDYSFTGYFMNWVMQSHGKSLEWIGRIFPYNGDTFYNQKFKGRATLTVDKSSSTAHMELRSLASEDSAVYFCARGTHYFDYWGQGTTLTVSS VL: PASLSASVGETVTITCRTSENIFSYLAWYQQKQGISPQLLVYNAKTLAEGVPSRFSGSGSGTQFSLKINSLQPEDFGSYYCQHHYAFPWTFGGGSKLEIKR",
    "reported_property": "Geometric Mean",
    "observed_value": 854
  },
  {
    "binder": "Monoclonal antibody 9F3.H9.H3.H3.B5.G2 (antibody, mouse IgG2a, V domains shown, also called ATCC PTA-11887) VH: ESGPGLVRPSQSLSLTCSVTGYSITSGYYWNWIRQFPGSRLEWMGYIKSDGSNNYNPSLKNRISITRDTSKNQFFLKLNSVTTEDTATYFCTREWKAMDYWGQGTSVTVSS VL: PAIMSASPGEKVTMTCRASSTVSYSYLHWYQQKSGASPQLWIYGTSNLASGVPARFSGSGSGTSYSLTISSVEAEDAATYYCQQYSGYPLTFGAGTKLELKR",
    "reported_property": "Geometric Mean",
    "observed_value": 760
  },
  {
    "binder": "Monoclonal antibody 19D4.B7 (antibody, mouse IgG2a, V domains shown, It was labelled with Ru (about 13 labels per IgG) when used as the detector in the ECL assays; also called ATCC PTA-11884) VH: GAELVKPGASVKLSCTASGFNIKHPYMHWVKQRPDQGLEWIGRIDPANGNTKYDPKFQGKATITADTSSNTAYLQLSSLTSEDTAVYYCGREEVADYTMDYWGQGTSVTVSS VL: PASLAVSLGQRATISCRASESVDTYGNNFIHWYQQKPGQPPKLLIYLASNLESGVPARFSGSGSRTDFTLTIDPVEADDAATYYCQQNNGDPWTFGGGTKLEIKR",
    "reported_property": "Geometric Mean",
    "observed_value": 1130
  }
]

In the following, a different binder is considered.
**Query** Quote Geometric Mean reported for Monoclonal antibody 24F12.B1 (antibody, mouse IgG1, V domains shown, also called ATCC PTA-11886) VH: SGGGLVRPGGSLKLSCAASGFTFSSYAMSWVRQSPEKRLEWVAEIGSGGSYTYYPDTVTGRFTISRDNAKSTLYLEMSSLRSEDTAIYYCARETTAGYFDYWGQGTTLTVSS VL: TSSLSASLGDRVTISCSASQGINNFLNWYQQKPDGTVKLLIYYTSSLHSGVPSRFSGSGSGTDYSLTISNLEPEDIAIYYCQHFSKLPWTFGGGTKLEIKR please.
**Result** 777
